# STUDY_SYSTEM: ubiquitin specific protease 1 (USP1) (Homo sapiens, UniProt O94782)
# Construct: recombinant USP1/UAF1 complex; with UAF1
# Sequence (O94782 whole entry): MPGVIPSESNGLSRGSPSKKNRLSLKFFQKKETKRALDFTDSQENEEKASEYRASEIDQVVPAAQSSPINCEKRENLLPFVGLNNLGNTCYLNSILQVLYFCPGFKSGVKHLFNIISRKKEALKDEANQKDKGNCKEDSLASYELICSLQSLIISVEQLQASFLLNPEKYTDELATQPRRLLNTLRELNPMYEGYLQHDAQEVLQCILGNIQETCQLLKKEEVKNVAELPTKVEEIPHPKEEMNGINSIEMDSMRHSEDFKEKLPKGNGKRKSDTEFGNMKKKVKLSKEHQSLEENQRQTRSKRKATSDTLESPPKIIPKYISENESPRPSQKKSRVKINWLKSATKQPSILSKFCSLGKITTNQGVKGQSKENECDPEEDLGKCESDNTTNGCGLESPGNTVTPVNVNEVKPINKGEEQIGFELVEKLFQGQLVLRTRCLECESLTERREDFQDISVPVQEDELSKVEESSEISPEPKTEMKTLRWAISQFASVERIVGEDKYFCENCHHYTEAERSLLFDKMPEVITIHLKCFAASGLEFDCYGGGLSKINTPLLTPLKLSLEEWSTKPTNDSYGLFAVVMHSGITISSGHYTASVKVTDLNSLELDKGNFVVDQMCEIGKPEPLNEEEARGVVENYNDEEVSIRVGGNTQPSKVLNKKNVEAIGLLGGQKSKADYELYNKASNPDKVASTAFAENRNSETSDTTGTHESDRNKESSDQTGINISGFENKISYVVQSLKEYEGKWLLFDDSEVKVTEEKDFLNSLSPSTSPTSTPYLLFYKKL
# Sequence (Q8TAF3 whole entry partner): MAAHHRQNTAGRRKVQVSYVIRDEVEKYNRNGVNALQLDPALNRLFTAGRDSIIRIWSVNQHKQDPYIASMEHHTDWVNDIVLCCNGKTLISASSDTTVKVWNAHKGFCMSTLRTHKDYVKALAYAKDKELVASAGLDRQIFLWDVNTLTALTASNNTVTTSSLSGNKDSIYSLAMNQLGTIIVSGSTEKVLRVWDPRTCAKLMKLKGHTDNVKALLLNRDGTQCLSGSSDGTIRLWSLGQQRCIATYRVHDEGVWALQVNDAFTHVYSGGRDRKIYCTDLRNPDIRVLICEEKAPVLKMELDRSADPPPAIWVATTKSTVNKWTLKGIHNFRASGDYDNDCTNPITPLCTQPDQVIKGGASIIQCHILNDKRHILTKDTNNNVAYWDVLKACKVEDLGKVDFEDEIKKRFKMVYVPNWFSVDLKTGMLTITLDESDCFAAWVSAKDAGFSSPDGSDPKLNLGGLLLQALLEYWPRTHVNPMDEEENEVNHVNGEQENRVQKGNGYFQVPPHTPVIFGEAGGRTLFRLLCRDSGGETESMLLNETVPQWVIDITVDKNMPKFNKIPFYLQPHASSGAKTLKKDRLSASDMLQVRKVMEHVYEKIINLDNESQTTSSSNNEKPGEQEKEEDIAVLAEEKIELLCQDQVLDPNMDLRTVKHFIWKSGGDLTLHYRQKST
# EXPERIMENT: Ub-AMC deubiquitinase activity assay with purified recombinant USP1/UAF1
METRIC: IC50 (µM)
Express your answer in µM, writing the number without its unit.

Task: For the molecule COc1cc(NC(C)CCCN)c2ncccc2c1 (stereo not shown) [PD, Primaquine diphosphate] , give its measured IC50 value.
Result: 25.4

Every entry's value here was drawn from paper PMC8211987.
